Target: T1, Bzz1-2, P38822
T1 sequence (P38822 568-633, looked up): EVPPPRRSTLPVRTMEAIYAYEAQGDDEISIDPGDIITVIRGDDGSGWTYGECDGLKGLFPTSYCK
Assay: SPOT array
Details: median of control spots 4538
SPOT intensity strictly under 3 means class 1; at 3 or over means class 0.

Q: Problem: For the binder "RLPAPPPPPRRGPAP" , is SPOT intensity under 3?
A: class 0

Q: Problem: For the binder "KKAPPPVVKPKPRNF" , is SPOT intensity under 3?
A: class 0
